What LC retention time was measured for each of the following?
# measurement.protocol: RP, Thermo Scientific Acclaim RSLC 120 C18, 100 × 2.1 mm, 2.2 µm, 30 °C, 0.2 mL/min, estimated dead time 1.1 min; A: 90% water + 10% methanol + 0.01% formic acid + 5 mM ammonium formate, pH 3.61; B: methanol + 0.01% formic acid + 5 mM ammonium formate, pH 3.61; gradient (min/%B) 0/1 1/1 2/39 13/99.9 15/99.9 15.1/1 20.1/1
# details: stereoisomer not certain

Qu. Retrieve LC retention time measured for C=C1CC(=CC)C(=O)OC2CC[N+]3([O-])CC=C(COC(=O)C1(C)O)C23 (stereo not drawn) [Seneciphylline-N-oxide] and print it.
Ans. 4.5 min

Qu. Retrieve LC retention time measured for OC(c1cc(C(F)(F)F)nc2c(C(F)(F)F)cccc12)C1CCCCN1 (stereo not drawn) and print it.
Ans. 8.59 min

Qu. Retrieve LC retention time measured for CC(N)Cc1c2ccoc2c(Br)c2ccoc12 (stereo not drawn) and print it.
Ans. 7.41 min

Qu. Retrieve LC retention time measured for CCC1OC(=O)C(C)C(OC2CC(C)(OC)C(O)C(C)O2)C(C)C(OC2OC(C)CC(N(C)C)C2O)C(C)(OC)CC(C)C(=O)C(C)C(O)C1(C)O (stereo not drawn) and print it.
Ans. 9.18 min

Qu. Retrieve LC retention time measured for CN(C)CCCC1(c2ccc(F)cc2)OC(=O)c2cc(C#N)ccc21 (stereo not drawn) and print it.
Ans. 6.6 min

Qu. Retrieve LC retention time measured for `Cc1cc(=O)[nH]c(C(C)C)n1` and print it.
Ans. 4.49 min

Qu. Retrieve LC retention time measured for CCN(CC)C(=O)C1C=C2c3cccc4[nH]cc(c34)CC2NC1 (stereo not drawn) and print it.
Ans. 5.56 min

Qu. Retrieve LC retention time measured for `CC1=C(C)S(=O)(=O)CCS1(=O)=O` and print it.
Ans. 3.73 min

---

# measurement.protocol: RP, Thermo Scientific Acclaim RSLC 120 C18, 100 × 2.1 mm, 2.2 µm, 30 °C, 0.2 mL/min, estimated dead time 1.1 min; A: 90% water + 10% methanol + 0.01% formic acid + 5 mM ammonium formate, pH 3.61; B: methanol + 0.01% formic acid + 5 mM ammonium formate, pH 3.61; gradient (min/%B) 0/1 1/1 2/39 13/99.9 15/99.9 15.1/1 20.1/1
# details: stereoisomer not certain
So basically: LC retention time at 9 min or higher? That is true (1). Lower than 9 min? That is false (0).

Qu. Has CCCN1CC(CSC)CC2c3cccc4[nH]cc(c34)CC21 (centres undefined) [Pergolide] a recorded LC retention time greater than or equal to 9 min?
Ans. false (0)

Qu. Has COC(=O)C(NC(=O)c1nn(CCCCCF)c2ccccc12)C(C)C (centres undefined) [AMB-5F] a recorded LC retention time greater than or equal to 9 min?
Ans. true (1)

Qu. Has CCS(=O)c1c(C#N)nn(-c2c(Cl)cc(C(F)(F)F)cc2Cl)c1N (centres undefined) [Ethiprole] a recorded LC retention time greater than or equal to 9 min?
Ans. true (1)

Qu. Has O=C(Nc1ccc(C(=O)O)c(O)c1)c1ccccc1 [Salicylic acid-4-Benzamido] a recorded LC retention time greater than or equal to 9 min?
Ans. false (0)

Qu. Has CC12CCC3c4cc(O)c(O)cc4CCC3C1CCC2=O (centres undefined) a recorded LC retention time greater than or equal to 9 min?
Ans. false (0)

Qu. Has CCOP(=O)(OCC)Oc1cc(C)nc(C(C)C)n1 [Diazinon-O-analog] a recorded LC retention time greater than or equal to 9 min?
Ans. false (0)

Qu. Has CCN1CCCC1CNC(=O)c1cc(S(N)(=O)=O)ccc1O (centres undefined) [Sulpiride-O-Desmethyl] a recorded LC retention time greater than or equal to 9 min?
Ans. false (0)

Qu. Has OCCN1CCN(CCC=C2c3ccccc3Sc3ccc(C(F)(F)F)cc32)CC1 [Flupentixol] a recorded LC retention time greater than or equal to 9 min?
Ans. true (1)

---

# measurement.protocol: RP, Thermo Scientific Acclaim RSLC 120 C18, 100 × 2.1 mm, 2.2 µm, 30 °C, 0.2 mL/min, estimated dead time 1.1 min; A: 90% water + 10% methanol + 0.01% formic acid + 5 mM ammonium formate, pH 3.61; B: methanol + 0.01% formic acid + 5 mM ammonium formate, pH 3.61; gradient (min/%B) 0/1 1/1 2/39 13/99.9 15/99.9 15.1/1 20.1/1
# details: stereoisomer not certain
What LC retention time was measured for each of the following?
// units = min; emit number, no label

Qu. Retrieve LC retention time measured for `O=C(NC(=O)c1c(F)cccc1F)Nc1ccc(CON=C(c2ccc(Cl)cc2)C2CC2)cc1` and print it.
Ans. 12.8

Qu. Retrieve LC retention time measured for `CCSCc1ccccc1OC(=O)NC` and print it.
Ans. 7.7

Qu. Retrieve LC retention time measured for c1ccc2c(c1)Cc1cccnc1N1CCNCC21 (stereo not drawn) and print it.
Ans. 5.31

Qu. Retrieve LC retention time measured for CC(C)N1C(=O)N(c2ccccc2)CSC1=NC(C)(C)C [Buprofezin (Z-isomer. Buprofexin)] and print it.
Ans. 12.2

Qu. Retrieve LC retention time measured for `O=C(NCc1ccccc1)c1cn(CCCCCF)c2ccccc12` and print it.
Ans. 10

Qu. Retrieve LC retention time measured for CC(N)Cc1ccc2ccoc2c1 (stereo not drawn) and print it.
Ans. 4.81

Qu. Retrieve LC retention time measured for CC(CCN1CCOCC1)OC(=O)C1(c2ccccc2)CCOCC1 (stereo not drawn) [Fedrilate] and print it.
Ans. 6.12

Qu. Retrieve LC retention time measured for `O=S(=O)(c1ccc(Cl)cc1)c1cc(Cl)c(Cl)cc1Cl` and print it.
Ans. 12.2

---

# measurement.protocol: RP, Thermo Scientific Acclaim RSLC 120 C18, 100 × 2.1 mm, 2.2 µm, 30 °C, 0.2 mL/min, estimated dead time 1.1 min; A: 90% water + 10% methanol + 0.01% formic acid + 5 mM ammonium formate, pH 3.61; B: methanol + 0.01% formic acid + 5 mM ammonium formate, pH 3.61; gradient (min/%B) 0/1 1/1 2/39 13/99.9 15/99.9 15.1/1 20.1/1
# details: stereoisomer not certain
What LC retention time was measured for each of the following?
// units = min; emit number, no label

Qu. Retrieve LC retention time measured for CC(CN1c2ccccc2Sc2ccc(S(=O)(=O)N(C)C)cc21)N(C)C (centres undefined) and print it.
Ans. 7.01

Qu. Retrieve LC retention time measured for CCCSP(=S)(OCC)Oc1ccc(SC)cc1 (centres undefined) and print it.
Ans. 12.8

Qu. Retrieve LC retention time measured for `O=[N+]([O-])c1cncn1CCN1CCOCC1` and print it.
Ans. 4.09

Qu. Retrieve LC retention time measured for CCCCOC(=O)C1C(C(=O)OCCCC)C2(Cl)C(Cl)=C(Cl)C1(Cl)C2(Cl)Cl (centres undefined) [Chlorendate-Dibutyl] and print it.
Ans. 14

Qu. Retrieve LC retention time measured for `CCN(CC)CCOC(=O)C1(C2CCCCC2)CCCCC1` and print it.
Ans. 9.99

Qu. Retrieve LC retention time measured for `CC(C)(C(=O)c1cccnc1)c1cccnc1` and print it.
Ans. 6.21

Qu. Retrieve LC retention time measured for `CCOc1cc(OP(=S)(OC)OC)nc(CC)n1` and print it.
Ans. 11

Qu. Retrieve LC retention time measured for `Nc1cnn(-c2ccccc2)c(=O)c1Cl` and print it.
Ans. 5.34

Qu. Retrieve LC retention time measured for `CCCCc1oc2ccccc2c1C(=O)c1cc(I)c(OCCN(CC)CC)c(I)c1` and print it.
Ans. 12.1

Qu. Retrieve LC retention time measured for `CCCCCn1nc(C(=O)Oc2cccc3ccccc23)c2ccccc21` and print it.
Ans. 13.1

Qu. Retrieve LC retention time measured for COP(=O)(OC)OC(C)=CC(=O)OC(C)c1ccccc1 (centres undefined) and print it.
Ans. 9.39

Qu. Retrieve LC retention time measured for CCOC(=O)C(c1ccccc1)N1CCCCC1 (centres undefined) [Ethylphenidate] and print it.
Ans. 5.08

Qu. Retrieve LC retention time measured for CN1CCN2c3ncc(O)cc3Cc3ccccc3C2C1 (centres undefined) and print it.
Ans. 4.54

Qu. Retrieve LC retention time measured for CCOC(=O)C=C1SC(N2CCCCC2)C(=O)N1CC (centres undefined) and print it.
Ans. 9.85

Qu. Retrieve LC retention time measured for CC(C)N(C(=O)SCC(Cl)=CCl)C(C)C [Diallate] and print it.
Ans. 11.8

Qu. Retrieve LC retention time measured for `CC(C)Oc1cccc(NC(=O)c2ccccc2C(F)(F)F)c1` and print it.
Ans. 9.52

Qu. Retrieve LC retention time measured for CCOC(=O)C(SP(=S)(OC)OC)c1ccccc1 (centres undefined) [Phenthoate] and print it.
Ans. 10.7

Qu. Retrieve LC retention time measured for `CC(C)(C)c1n[nH]c(=O)n(N)c1=O` and print it.
Ans. 5.89

Qu. Retrieve LC retention time measured for Cc1ccccc1C(OCCN(C)C)c1ccccc1 (centres undefined) and print it.
Ans. 7.44

Qu. Retrieve LC retention time measured for CN(C)C(=O)OC1N=C(c2ccccc2)c2cc(Cl)ccc2N(C)C1=O (centres undefined) and print it.
Ans. 10

Qu. Retrieve LC retention time measured for `COc1cc(OC)nc(NC(=O)NS(=O)(=O)c2c(-c3nnn(C)n3)cnn2C)n1` and print it.
Ans. 7.62

Qu. Retrieve LC retention time measured for `N#CCNC(=O)c1cnccc1C(F)(F)F` and print it.
Ans. 4.22

Qu. Retrieve LC retention time measured for `Cc1cc(N(C)C)nc(Cl)n1` and print it.
Ans. 6.2

Qu. Retrieve LC retention time measured for CN(C)CCC=C1c2ccccc2CSc2ccccc21 [Dosulepin] and print it.
Ans. 7.61

Qu. Retrieve LC retention time measured for `CNC(=O)Nc1nc2ccccc2s1` and print it.
Ans. 7.13

Qu. Retrieve LC retention time measured for CCOC(=O)CSc1nc(C(C)(C)C)nn1C(=O)N(C)C [Triazamate] and print it.
Ans. 6.38

Qu. Retrieve LC retention time measured for CC(C)(C)NC(=O)C1CN(Cc2cccnc2)CCN1CC(O)CC(Cc1ccccc1)C(=O)NC1c2ccccc2CC1O (centres undefined) and print it.
Ans. 9.79

Qu. Retrieve LC retention time measured for CNC(C)Cc1ccc(O)c(O)c1 (centres undefined) and print it.
Ans. 2.59

Qu. Retrieve LC retention time measured for `COCCOCCOC` and print it.
Ans. 3.9

Qu. Retrieve LC retention time measured for O=P1(NCCCl)OCCCN1CCCl (centres undefined) and print it.
Ans. 5.89

Qu. Retrieve LC retention time measured for CC(COc1ccc(Oc2ccccc2)cc1)Oc1ccccn1 (centres undefined) and print it.
Ans. 12.6

Qu. Retrieve LC retention time measured for COc1ccc2c(c1O)-c1c3c(cc4c1C(C2)N(C)CC4)OCO3 (centres undefined) and print it.
Ans. 4.36

Qu. Retrieve LC retention time measured for CC(C)(C)NC(=O)C1CCC2C3CCC4NC(=O)C=CC4(C)C3CCC12C (centres undefined) [Finasteride] and print it.
Ans. 9.9

Qu. Retrieve LC retention time measured for COC(=O)COCCN1CCN(C(c2ccccc2)c2ccc(Cl)cc2)CC1 (centres undefined) and print it.
Ans. 8.86

Qu. Retrieve LC retention time measured for `COc1ccc(OC)c(CCN)c1` and print it.
Ans. 4.43

Qu. Retrieve LC retention time measured for CCOCCN(C(=O)CCl)C(=C(C)C)c1ccccc1 [Pethoxamide] and print it.
Ans. 10.1

Qu. Retrieve LC retention time measured for CCCCOCCOCCOCc1cc2c(cc1CCC)OCO2 [Piperonyl butoxide] and print it.
Ans. 12.4

Qu. Retrieve LC retention time measured for CC(C)N(C(=O)SCC(Cl)=C(Cl)Cl)C(C)C [Triallate] and print it.
Ans. 12.7

Qu. Retrieve LC retention time measured for `O=S(=O)(c1ccc(O)cc1)c1ccc(O)cc1` and print it.
Ans. 5.35

These measurements were taken from the RepoRT retention time repository (doi:10.1021/acs.analchem.2c02893).
